- assaySystem: rat P2X7 (Rattus norvegicus (Rat), UniProt Q64663)
- Sequence (Q64663 whole entry): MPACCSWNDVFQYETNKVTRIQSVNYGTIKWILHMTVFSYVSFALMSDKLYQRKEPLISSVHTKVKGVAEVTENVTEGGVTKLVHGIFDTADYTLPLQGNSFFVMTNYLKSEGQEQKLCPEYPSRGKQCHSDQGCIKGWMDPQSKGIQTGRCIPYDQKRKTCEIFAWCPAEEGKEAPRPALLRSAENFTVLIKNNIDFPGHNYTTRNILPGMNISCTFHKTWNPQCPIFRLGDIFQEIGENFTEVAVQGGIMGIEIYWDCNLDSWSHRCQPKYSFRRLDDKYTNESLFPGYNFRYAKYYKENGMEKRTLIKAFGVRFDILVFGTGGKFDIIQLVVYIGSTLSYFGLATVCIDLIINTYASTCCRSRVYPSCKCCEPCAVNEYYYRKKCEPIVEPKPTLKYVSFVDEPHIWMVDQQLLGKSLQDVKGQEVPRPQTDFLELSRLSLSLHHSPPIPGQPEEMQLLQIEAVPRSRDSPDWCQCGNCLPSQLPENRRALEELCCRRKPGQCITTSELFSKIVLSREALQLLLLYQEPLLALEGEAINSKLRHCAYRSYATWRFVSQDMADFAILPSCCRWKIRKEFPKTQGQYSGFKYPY
- methodSummary: P2X7 antagonism in recombinant rat P2X7 cells (column headed P2X7 Rat IC50)
- Assay type: binding
endpoint: IC50 (nM)
Write the number in nM without appending the unit.

Known IC50 results, listed for orientation:
{"molecule": "Cc1nc(-c2ccn[nH]2)c2c(n1)[C@@H]1CCC[C@H](C2)N1C(=O)c1ccnc(C(F)(F)F)c1Cl", "unitString": "nM", "testValue": 920}
{"molecule": "Cc1nc(-c2ccc(F)cc2)c2c(n1)[C@H]1CCC[C@@H](C2)N1C(=O)c1cccc(C(F)(F)F)c1Cl", "unitString": "nM", "testValue": 16.6}
{"molecule": "Cc1nc(-c2ccn[nH]2)c2c(n1)[C@H]1CCC[C@@H](C2)N1C(=O)c1ccc(Cl)cc1F", "unitString": "nM", "testValue": 7940}

Missing value: IC50, rat P2X7 (Rattus norvegicus (Rat), UniProt Q64663), entry Cc1nc(-c2ccnn2C)c2c(n1)[C@H]1CCC[C@@H](C2)N1C(=O)c1cccc(C(F)(F)F)c1Cl . Fill in?
11.6

Missing value: IC50, rat P2X7 (Rattus norvegicus (Rat), UniProt Q64663), entry Cc1nc(-c2ccn[nH]2)c2c(n1)[C@@H]1CCC[C@H](C2)N1C(=O)c1cccc(C(F)(F)F)c1C . Fill in?
970

Missing value: IC50, rat P2X7 (Rattus norvegicus (Rat), UniProt Q64663), entry Cc1nc(-c2ccn[nH]2)c2c(n1)C1CCCC(C2)N1C(=O)c1cccc(Cl)c1Cl (stereo not drawn) . Fill in?
101
